Biological target: CDK2 (Homo sapiens, UniProt P24941)
Construct: host or cells: HEK293-CDK2-Hibit
Experiment: HiBit Assay Protocol for CDK2 (HIBIT protein quantification, degradation)
Assay type: cell-based
Conditions: HEK293-CDK2-Hibit cells, compound treatment for 6 hours
Experimental: HiBit Assay Protocol for CDK2 • 1. The culture medium for HEK293-CDK2-Hibit cells was prepared using DMEM with 10% FBS. • 2. Cells were cultivated in T-75 flasks in a cell culture incubator set at 37° C., 5% CO2, 95% relative humidity. […] Cells were harvested from flask into cell culture medium and then the cell number was counted. […] • 1. […] 20 μL of HiBit reagent was added into each well and the plates were spinned at room temperature at 1,000 RPM for 1 minute to be detected. […]
The compounds listed here are annotated with their CDK2 HIBIT Protein Quantification Maximum.
EXPERIMENTAL_READOUT: CDK2 HIBIT Protein Quantification Maximum

COMPOUND	VALUE_REPORTED
C[C@H](c1cccc(S(=O)(=O)N2CC[C@H](Nc3ncc4c(n3)N([C@@H]3CCC[C@@H](O)C3)C(=O)C43CC3)[C@H](F)C2)c1)N1CCN(c2ccc3c(N4CCC(=O)NC4=O)nn(C)c3c2)[C@@H](C)C1	90%
CC1CCCC1N1C(=O)C2(CC2)c2cnc(NC3CCN(S(=O)(=O)N4CCC5(CCCN5C(=O)CCc5ccc6c(c5)n(C)c(=O)n6C5CCC(=O)NC5=O)C4)CC3)nc21 (centres unmarked)	41%
CC1CCCC1N1C(=O)C2(CC2)c2cnc(NC3CCN(S(=O)(=O)N4CC5(CCCN(C6CCN(c7cccc8c7n(C)c(=O)n8C7CCC(=O)NC7=O)C6)C5)C4)CC3)nc21 (centres unmarked)	52%
CC1CCCC1N1C(=O)C2(CC2)c2cnc(NC3CCN(S(=O)(=O)C4CCN(CC5CCN(c6ccc7c(c6)n(C)c(=O)n7C6CCC(=O)NC6=O)CC5)C4)CC3)nc21 (centres unmarked)	71%
CC1CCCC1N1C(=O)C2(CC2)c2cnc(NC3CCN(S(=O)(=O)N4CCC5(CCN(C(=O)CCCCc6ccc7c(c6)n(C)c(=O)n7C6CCC(=O)NC6=O)C5)C4)CC3)nc21 (centres unmarked)	22%
CC1CCCC1N1C(=O)C2(CC2)c2cnc(NC3CCN(S(=O)(=O)N4CCCC45CCN(C(=O)CCCCCc4ccc6c(c4)n(C)c(=O)n6C4CCC(=O)NC4=O)C5)CC3)nc21 (centres unmarked)	19%
CC1CCCC1N1C(=O)C2(CC2)c2cnc(NC3CCN(S(=O)(=O)N4CC5(CCCN(C(=O)CCCCc6cccc7c6n(C)c(=O)n7C6CCC(=O)NC6=O)C5)C4)CC3)nc21 (centres unmarked)	46%
CC1CCCC1N1C(=O)C2(CC2)c2cnc(NC3CCN(S(=O)(=O)N4CC5(CN(C(=O)CCCc6cccc7c6n(C)c(=O)n7C6CCC(=O)NC6=O)C5)C4)CC3)nc21 (centres unmarked)	76%
CC1CCCC1N1C(=O)C2(CC2)c2cnc(NC3CCN(S(=O)(=O)N4CC5(CCN(C(=O)Cc6cccc7c6n(C)c(=O)n7C6CCC(=O)NC6=O)CC5)C4)CC3)nc21 (centres unmarked)	27%
C[C@H](c1cccc(S(=O)(=O)N2CCC(Nc3ncc4c(n3)N([C@@H]3CCC[C@@H](O)C3)C(=O)C43CC3)CC2)c1)N1CCC(c2ccc3c(N4CCC(=O)NC4=O)nn(C)c3c2)CC1	80%
CC1CCCC1N1C(=O)C2(CC2)c2cnc(NC3CCN(S(=O)(=O)N4CCC5(CCCN5C(=O)CCCCCCCc5cccc6c5n(C)c(=O)n6C5CCC(=O)NC5=O)C4)CC3)nc21 (centres unmarked)	45.7%
CC(c1cccc(S(=O)(=O)N2CC[C@H](Nc3ncc4c(n3)N([C@@H]3CCC[C@@H](O)C3)C(=O)C43CC3)[C@H](F)C2)c1)N1CCC(c2ccc3c(N4CCC(=O)NC4=O)nn(C)c3c2)CC1 (some centres unmarked)	85%
CC1CCCC1N1C(=O)C2(CC2)c2cnc(NC3CCN(S(=O)(=O)N4CC5(CCCCN5C(=O)CCCCc5ccc6c(c5)n(C)c(=O)n6C5CCC(=O)NC5=O)C4)CC3)nc21 (centres unmarked)	32%
O=C1CCC(N2Cc3cc(C4CN(Cc5cccc(S(=O)(=O)N6CCC(Nc7ncc8c(n7)N([C@@H]7CCC[C@@H](O)C7)C(=O)C87CC7)CC6)c5)C4)ccc3C2=O)C(=O)N1 (some centres unmarked)	52%
CC1CCCC1N1C(=O)C2(CC2)c2cnc(NC3CCN(S(=O)(=O)N4CC5C4CCN5C(=O)CCCCc4cccc5c4n(C)c(=O)n5C4CCC(=O)NC4=O)CC3)nc21 (centres unmarked)	31%
CC1CCCC1N1C(=O)C2(CC2)c2cnc(NC3CCN(S(=O)(=O)N4CC5(CCCCN5CC5CCN(c6cccc7c6n(C)c(=O)n7C6CCC(=O)NC6=O)CC5)C4)CC3)nc21 (centres unmarked)	53%
CC1CCCC1N1C(=O)C2(CC2)c2cnc(NC3CCN(S(=O)(=O)N4CC5(CCCN(C(=O)CCCCc6ccc7c(c6)n(C)c(=O)n7C6CCC(=O)NC6=O)C5)C4)CC3)nc21 (centres unmarked)	28%
CC1CCCC1N1C(=O)C2(CC2)c2cnc(NC3CCN(S(=O)(=O)C4CCN(C(=O)CCCCCCCCCc5ccc6c(c5)n(C)c(=O)n6C5CCC(=O)NC5=O)C4)CC3)nc21 (centres unmarked)	67%
CC1CCCC1N1C(=O)C2(CC2)c2cnc(NC3CCN(S(=O)(=O)N4CC5(CCN(C(=O)CCCCc6ccc7c(c6)n(C)c(=O)n7C6CCC(=O)NC6=O)CC5)C4)CC3)nc21 (centres unmarked)	57%
CC1CCCC1N1C(=O)C2(CC2)c2cnc(NC3CCN(S(=O)(=O)N4CCC5(CCN(C(=O)CCCCCCCc6cccc7c6n(C)c(=O)n7C6CCC(=O)NC6=O)C5)C4)CC3)nc21 (centres unmarked)	44%

###

Biological target: CCNE1 (Homo sapiens)
Construct: host or cells: HEK293-CCNE1-Hibit
Sequence (P24864 whole entry): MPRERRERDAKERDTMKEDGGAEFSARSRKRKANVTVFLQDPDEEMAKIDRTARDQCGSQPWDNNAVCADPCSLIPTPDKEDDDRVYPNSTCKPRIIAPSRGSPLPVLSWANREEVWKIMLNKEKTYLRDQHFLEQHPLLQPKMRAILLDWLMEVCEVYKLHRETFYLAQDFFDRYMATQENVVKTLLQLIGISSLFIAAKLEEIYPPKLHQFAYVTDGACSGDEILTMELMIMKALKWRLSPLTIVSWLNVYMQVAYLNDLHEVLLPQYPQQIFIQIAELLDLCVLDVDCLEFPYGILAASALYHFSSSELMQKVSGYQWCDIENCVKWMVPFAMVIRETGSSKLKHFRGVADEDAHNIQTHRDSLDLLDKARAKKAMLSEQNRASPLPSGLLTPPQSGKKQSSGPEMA
Experiment: HiBit Assay Protocol for CCNE1 (HIBIT protein quantification, degradation)
Type: cell-based
Settings: HEK293-CCNE1-Hibit cells, compound treatment for 6 hours
I would appreciate it if you labelled entries criterion met when CCNE1 HIBIT Protein Quantification Maximum is 20% or higher, otherwise criterion not met.

COMPOUND	MEASUREMENT_TARGET	ANSWER_LABEL
CC1CCCC1N1C(=O)C2(CC2)c2cnc(NC3CCN(S(=O)(=O)N4CC5(CCCN(C(=O)CCCCCCCc6cccc7c6n(C)c(=O)n7C6CCC(=O)NC6=O)C5)C4)CC3)nc21 (centres unmarked)	CCNE1 (Homo sapiens)	criterion not met
CC1CCCC1N1C(=O)C2(CC2)c2cnc(NC3CCN(S(=O)(=O)N4CC5(CCCN(C(=O)CCCCc6cccc7c6n(C)c(=O)n7C6CCC(=O)NC6=O)C5)C4)CC3)nc21 (centres unmarked)	CCNE1 (Homo sapiens)	criterion met
Cn1nc(N2CCC(=O)NC2=O)c2ccc(C3CCN(CC4CCCN(S(=O)(=O)N5CCC(Nc6ncc7c(n6)N([C@@H]6CCC[C@@H](O)C6)C(=O)C76CC6)CC5)C4)CC3)cc21 (some centres unmarked)	CCNE1 (Homo sapiens)	criterion met
CC1CCCC1N1C(=O)C2(CC2)c2cnc(NC3CCN(S(=O)(=O)N4CC5(CCN(C(=O)CCCCCCCc6cccc7c6n(C)c(=O)n7C6CCC(=O)NC6=O)CC5)C4)CC3)nc21 (centres unmarked)	CCNE1 (Homo sapiens)	criterion met

###

Target: CDK2 (Homo sapiens, UniProt P24941)
Construct: host or cells: HEK293-CDK2-Hibit
Experiment: HiBit Assay Protocol for CDK2 (HIBIT protein quantification, degradation)
Type: cell-based
Details: HEK293-CDK2-Hibit cells, compound treatment for 6 hours, ABS DC50
EXPERIMENTAL_READOUT: DC50

MOLECULE	EXPERIMENTAL_READOUT	VALUE_REPORTED
C[C@H](c1cccc(S(=O)(=O)N2CCC(Nc3ncc4c(n3)N([C@@H]3CCC[C@@H](O)C3)C(=O)C43CC3)CC2)c1)N1CCC(c2ccc3c(N4CCC(=O)NC4=O)nn(C)c3c2)CC1	DC50	3.31 nM
Cn1c(=O)n(C2CCC(=O)NC2=O)c2ccc(-c3ccc(Oc4cccc(S(=O)(=O)N5CCC(Nc6ncc7c(n6)N([C@@H]6CCC[C@@H](O)C6)C(=O)C76CC6)CC5)c4)cc3)cc21 (some centres unmarked)	DC50	13.9 nM
C[C@@H]1CN(S(=O)(=O)c2cccc(CN3CCC(c4ccc5c(N6CCC(=O)NC6=O)nn(C)c5c4)CC3)c2)CC[C@@H]1Nc1ncc2c(n1)N([C@@H]1CCC[C@@H](O)C1)C(=O)C21CC1	DC50	9.42 nM
CC1CCCC1N1C(=O)C2(CC2)c2cnc(NC3CCN(S(=O)(=O)N4CC5(CCCN(C6CCN(c7cccc8c7n(C)c(=O)n8C7CCC(=O)NC7=O)C6)C5)C4)CC3)nc21 (centres unmarked)	DC50	3.25 nM
Cc1ccc(S(=O)(=O)N2CCC(Nc3ncc4c(n3)N([C@@H]3CCC[C@@H](O)C3)C(=O)C43CC3)CC2)cc1CN1CCC(c2ccc3c(N4CCC(=O)NC4=O)nn(C)c3c2)CC1	DC50	2.91 nM
